- Tested on: HeLa
- ASSAY METHOD TEXT: maximal percent of cells arrested in mitosis within titration; higher = stronger mitotic arrest
- CONDITION DESCRIPTION: 20 h
Hi, to clarify the labels: satisfied covers maximal percent from 70% upward, not satisfied covers anything below 70%.

Past entries and their recorded results:
>  <COMPOUND>
CCN(CC)CCN1C(=O)C(=O)C(=C(O)c2ccccc2)C1c1ccccc1F (stereo not given)

>  <ASSIGNED LABEL>
not satisfied

$$$$
>  <COMPOUND>
O=c1[nH]c(/C=C/c2ccccc2F)nc2ccccc12

>  <ASSIGNED LABEL>
not satisfied

$$$$

As a next step, examine the compound that follows.
*Q* Is it the case that COC(=O)Nc1nc2cc(C(=O)c3ccccc3)ccc2[nH]1 has maximal percent reaching or exceeding 70%?
*A* satisfied
